target: UniProt P43115
protocol: Functional activity in RAT-1cells, transiently-transfected with human Prostaglandin E receptor EP3 (% of control ligand, sulprostone<20%)
parameter measured: EC50

1) CCCCC(C)(C)[C@H](O)CC[C@@H]1[C@@H](CCCCCCC(=O)O)[C@@H](O)C[C@H]1O    > 20 µM

----------
target: Prostaglandin E2 receptor EP1 subtype (Homo sapiens, UniProt P34995)
Sequence (P34995 whole entry): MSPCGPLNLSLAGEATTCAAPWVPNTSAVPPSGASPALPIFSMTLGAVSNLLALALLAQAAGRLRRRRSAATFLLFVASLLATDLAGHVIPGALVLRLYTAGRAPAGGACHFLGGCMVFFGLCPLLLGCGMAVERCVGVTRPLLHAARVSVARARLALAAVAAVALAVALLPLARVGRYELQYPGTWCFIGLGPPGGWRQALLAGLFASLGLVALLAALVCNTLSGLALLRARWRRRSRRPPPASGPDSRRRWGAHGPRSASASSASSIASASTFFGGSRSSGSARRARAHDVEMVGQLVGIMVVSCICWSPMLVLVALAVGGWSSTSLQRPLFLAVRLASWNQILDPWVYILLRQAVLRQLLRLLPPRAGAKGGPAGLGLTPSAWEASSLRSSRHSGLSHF
protocol: Compound was evaluated for its ability to displace [3H]PGE-2 from human Prostaglandin E receptor EP1 isolated from CHO-KI cells (% of control ligand, 17-phi-PGE2=80%)
Assay type: cell-based
pIC50: −log10 of the molar value.
parameter measured: pIC50

1) COc1cccc(CC[C@H](O)CC[C@@H]2[C@@H](CCCCCCC(=O)O)[C@@H](O)C[C@H]2O)c1    < 5.00

----------
target: Prostaglandin F2-alpha receptor (Homo sapiens)
Sequence (P43088 whole entry): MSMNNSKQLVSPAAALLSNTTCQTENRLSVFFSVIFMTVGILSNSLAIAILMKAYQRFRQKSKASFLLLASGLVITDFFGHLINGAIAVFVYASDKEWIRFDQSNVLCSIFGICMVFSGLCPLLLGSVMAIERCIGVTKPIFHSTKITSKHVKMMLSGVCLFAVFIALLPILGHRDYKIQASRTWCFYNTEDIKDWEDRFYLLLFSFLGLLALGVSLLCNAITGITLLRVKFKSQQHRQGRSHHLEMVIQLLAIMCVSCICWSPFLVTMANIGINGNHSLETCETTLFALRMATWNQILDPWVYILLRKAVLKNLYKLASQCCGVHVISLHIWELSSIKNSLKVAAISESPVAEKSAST
protocol: Functional activity in RAT-1cells, transiently-transfected with human FP-receptor (% of control ligand, fluprostenol=100%)
parameter measured: EC50 (nM)

1. O=C(O)CCCCCC[C@@H]1[C@@H](CC[C@@H](O)COc2cccc(Cl)c2)[C@H](O)C[C@@H]1O    9

----------
target: Prostaglandin E2 receptor EP3 subtype (Homo sapiens, UniProt P43115)
Sequence (P43115 whole entry): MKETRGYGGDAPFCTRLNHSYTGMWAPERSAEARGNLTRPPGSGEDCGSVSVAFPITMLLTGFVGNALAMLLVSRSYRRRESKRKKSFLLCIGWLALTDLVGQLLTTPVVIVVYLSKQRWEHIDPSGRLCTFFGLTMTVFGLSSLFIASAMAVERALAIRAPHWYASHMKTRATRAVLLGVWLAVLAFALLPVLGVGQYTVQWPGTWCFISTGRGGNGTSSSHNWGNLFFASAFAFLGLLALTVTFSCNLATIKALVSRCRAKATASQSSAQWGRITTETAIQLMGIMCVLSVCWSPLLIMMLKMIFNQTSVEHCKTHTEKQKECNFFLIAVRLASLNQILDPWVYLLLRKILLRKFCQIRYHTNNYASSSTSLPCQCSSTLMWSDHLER
protocol: Compound was evaluated for its ability to displace [3H]-PGE-2 from human Prostaglandin E receptor EP3 isolated from CHO-KI cells
Format: cell-based
parameter measured: IC50

1) N#Cc1cccc(CC[C@H](O)CC[C@@H]2[C@@H](CCCCCCC(=O)O)[C@@H](O)C[C@H]2O)c1    > 10 µM

----------
target: Thromboxane A2 receptor (Homo sapiens)
Sequence (P21731 whole entry): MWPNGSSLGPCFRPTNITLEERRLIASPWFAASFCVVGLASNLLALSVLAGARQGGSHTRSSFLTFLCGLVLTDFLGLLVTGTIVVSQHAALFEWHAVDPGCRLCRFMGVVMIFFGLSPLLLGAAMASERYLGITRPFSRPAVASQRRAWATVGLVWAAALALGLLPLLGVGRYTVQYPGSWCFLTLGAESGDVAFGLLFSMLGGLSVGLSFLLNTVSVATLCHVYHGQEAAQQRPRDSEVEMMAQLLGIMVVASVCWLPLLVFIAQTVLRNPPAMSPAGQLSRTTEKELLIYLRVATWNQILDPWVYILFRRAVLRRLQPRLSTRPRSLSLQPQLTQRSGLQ
protocol: Functional activity in RAT-1cells, transiently-transfected with human TP-receptor (% of control ligand, [3H]-U-46,619=95%)
pEC50: −log10 of the molar value.
Measured pEC50 of individual entries
parameter measured: pEC50

1. CCCCC(C)(C)[C@H](O)/C=C/[C@@H]1[C@@H](C/C=C\CCCC(=O)O)[C@@H](O)C[C@H]1O    7.62
2. CCCCC[C@H](O)/C=C/[C@@H]1[C@@H](C/C=C\CCCC(=O)O)[C@@H](O)C[C@H]1O [DINOPROST]    5.85
